These data points were gathered from ChEMBL document CHEMBL4118096.

- System: Aspergillus niger
- Method description: Antifungal activity against Aspergillus niger measured on day 4 by broth microdilution method
- Format: functional
- Conditions: 96 h
Where a SMILES comes first, the peptide text is derived from it. The star is where a group is joined. Benzoyl(4-B(OH)2) = O=C(c1ccc(B(O)O)cc1)*; Bz = O=C(c1ccccc1)*
Readout: MIC (µg/mL)

{"Compound": "CC(C)C[C@H](NC(=O)[C@H](CCCCN)NC(=O)[C@H](CCCCN)NC(=O)[C@H](CC(C)C)NC(=O)[C@H](CCCCN)NC(=O)[C@@H](N)CCCCN)C(=O)N[C@@H](CCCCN)C(=O)N[C@@H](CCCCNC(=O)c1ccc(B(O)O)cc1)C(=O)N[C@@H](CCCCNC(=O)c1ccc(B(O)O)cc1)C(=O)N[C@@H](Cc1ccc(O)cc1)C(=O)O (H-KKLKKLKK(Benzoyl(4-B(OH)2))K(Benzoyl(4-B(OH)2))Y-OH)", "Readout": "MIC", "Value measured": 125}
{"Compound": "CC(C)C[C@H](NC(=O)[C@H](CC(C)C)NC(=O)[C@H](CCCCN)NC(=O)[C@H](CCCCN)NC(=O)[C@H](CC(C)C)NC(=O)[C@H](CCCCN)NC(=O)[C@@H](N)CCCCN)C(=O)N[C@@H](CCCCN)C(=O)N[C@@H](CCCCNC(=O)c1ccc(B(O)O)cc1)C(=O)N[C@@H](Cc1ccc(O)cc1)C(=O)O (H-KKLKKLLKK(Benzoyl(4-B(OH)2))Y-OH)", "Readout": "MIC", "Value measured": 125}
{"Compound": "NCCCC[C@H](NC(=O)[C@H](CCCCNC(=O)c1ccccc1)NC(=O)[C@H](CCCCNC(=O)c1ccccc1)NC(=O)[C@H](CCCCN)NC(=O)[C@H](CCCCN)NC(=O)[C@H](CCCCN)NC(=O)[C@H](CCCCN)NC(=O)[C@H](CCCCN)NC(=O)[C@@H](N)CCCCN)C(=O)N[C@@H](Cc1ccc(O)cc1)C(=O)O (H-KKKKKKK(Bz)K(Bz)KY-OH)", "Readout": "MIC", "Value measured": 250}

====

- Test system: Candida albicans
- Method description: Antifungal activity against Candida albicans VT1406 in cell suspension after 24 hrs by XXT/PMS dye based assay
- Format: functional
- Conditions: VT1406, 24 h
Where a SMILES comes first, the peptide text is derived from it. The star is where a group is joined. Benzoyl(4-B(OH)2) = O=C(c1ccc(B(O)O)cc1)*; Acridin9yl = c1ccc2c(*)c3ccccc3nc2c1

{"Compound": "CC(C)C[C@H](NC(=O)[C@H](CCCCNc1c2ccccc2nc2ccccc12)NC(=O)[C@H](CCCCN)NC(=O)[C@H](CCCCN)NC(=O)[C@H](CCCCN)NC(=O)[C@H](CCCCN)NC(=O)[C@H](CCCCN)NC(=O)[C@@H](N)CCCCN)C(=O)N[C@@H](CCCCN)C(=O)N[C@@H](Cc1ccc(O)cc1)C(=O)O (H-KKKKKKK(Acridin9yl)LKY-OH)", "Assay target": "Candida albicans", "MIC, µg/mL": 1}
{"Compound": "CC(C)C[C@H](NC(=O)[C@H](CCCCN)NC(=O)[C@H](CCCCN)NC(=O)[C@H](CCCCNc1c2ccccc2nc2ccccc12)NC(=O)[C@H](CCCCN)NC(=O)[C@H](CCCCN)NC(=O)[C@H](CCCCNc1c2ccccc2nc2ccccc12)NC(=O)[C@@H](N)CCCCN)C(=O)N[C@@H](CCCCNC(=O)c1ccc(B(O)O)cc1)C(=O)N[C@@H](Cc1ccc(O)cc1)C(=O)O (H-KK(Acridin9yl)KKK(Acridin9yl)KKLK(Benzoyl(4-B(OH)2))Y-OH)", "Assay target": "Candida albicans", "MIC, µg/mL": 2}
{"Compound": "CC(C)C[C@H](NC(=O)[C@H](CCCCN)NC(=O)[C@H](CCCCN)NC(=O)[C@H](CCCCN)NC(=O)[C@H](CCCCN)NC(=O)[C@H](CCCCN)NC(=O)[C@H](CCCCN)NC(=O)[C@@H](N)CCCCN)C(=O)N[C@@H](CCCCNc1c2ccccc2nc2ccccc12)C(=O)N[C@@H](Cc1ccc(O)cc1)C(=O)O (H-KKKKKKKLK(Acridin9yl)Y-OH)", "Assay target": "Candida albicans", "MIC, µg/mL": 1}
{"Compound": "C[C@@H]1[C@H](O)[C@@H](C)/C=C/C=C/C=C/C=C/C=C/C=C/C=C/[C@H](O[C@@H]2O[C@H](C)[C@@H](O)[C@H](N)[C@@H]2O)C[C@@H]2O[C@](O)(C[C@@H](O)C[C@@H](O)[C@H](O)CC[C@@H](O)C[C@@H](O)CC(=O)O[C@H]1C)C[C@H](O)[C@H]2C(=O)O [AMPHOTERICIN B]", "Assay target": "Candida albicans", "MIC, µg/mL": 0.25}
{"Compound": "Clc1ccc(COC(Cn2ccnc2)c2ccc(Cl)cc2Cl)c(Cl)c1 (stereo not given) [MICONAZOLE]", "Assay target": "Candida albicans", "MIC, µg/mL": 1}
